Test system: ZR-75-1
Assay: Caspase cascade activation / apoptosis induction assay (N-(Ac-DEVD)-N'-ethoxycarbonyl-R110 substrate) in ZR-75-1 cells
Format: cell-based, Human
Conditions: ZR-75-1, 24 h incubation; read-out: Caspase potency EC50
pEC50: −log10 of the molar value.
measure_name: pEC50

[
  {
    "molecule": "CC(C)=CCCC1(C)C=Cc2c(O)c3c(c(CC=C(C)C)c2O1)OC12C(C3=O)C(NCCN3CCOCC3)C3CC1C(C)(C)OC2(C/C=C(/C)C(=O)N1CCN(C)CC1)C3=O (stereo not drawn) [Example 6]",
    "system_under_test": "ZR-75-1",
    "comparator": "=",
    "observed": 5.84
  },
  {
    "molecule": "CC(C)=CCCC1(C)C=Cc2c(O)c3c(c(CC=C(C)C)c2O1)OC12C(C3=O)C(OCCN(C)C)C3CC1C(C)(C)OC2(C/C=C(/C)C(=O)N1CCN(C)CC1)C3=O (stereo not drawn) [Example 9]",
    "system_under_test": "ZR-75-1",
    "comparator": "=",
    "observed": 5.28
  },
  {
    "molecule": "CC(C)=CCCC1(C)C=Cc2c(O)c3c(c(CC=C(C)C)c2O1)OC12C(C3=O)C(N3CCOCC3)C3CC1C(C)(C)OC2(C/C=C(/C)C(=O)N1CCN(C)CC1)C3=O (stereo not drawn) [Example 4]",
    "system_under_test": "ZR-75-1",
    "comparator": "=",
    "observed": 5.40
  },
  {
    "molecule": "CC(C)=CCCC1(C)C=Cc2c(O)c3c(c(CC=C(C)C)c2O1)OC12C(C3=O)C(N3CCOCC3)C3CC1C(C)(C)OC2(C/C=C(/C)C(=O)N1CCOCC1)C3=O (stereo not drawn) [Example 10]",
    "system_under_test": "ZR-75-1",
    "comparator": "=",
    "observed": 5.86
  },
  {
    "molecule": "CC(C)=CCCC1(C)C=Cc2c(O)c3c(c(CC=C(C)C)c2O1)OC12C(C3=O)C(N3CCN(c4ccccn4)CC3)C3CC1C(C)(C)OC2(C/C=C(/C)C(=O)N1CCN(C)CC1)C3=O (stereo not drawn) [Example 7]",
    "system_under_test": "ZR-75-1",
    "comparator": "<",
    "observed": 5.00
  },
  {
    "molecule": "CC(C)=CCCC1(C)C=Cc2c(O)c3c(c(CC=C(C)C)c2O1)OC12C(C3=O)C(N3CCCCC3)C3CC1C(C)(C)OC2(C/C=C(/C)C(=O)N1CCN(C)CC1)C3=O (stereo not drawn) [Example 5]",
    "system_under_test": "ZR-75-1",
    "comparator": "=",
    "observed": 5.63
  }
]

Source of measurements: patent US7176234B2
